conditions: 373.15 K; 101.33 kPa; Liquid; Vibrating tube method
parameter_measured: mass density (kg/m3)
Give the number; kg/m3 is assumed, so skip it.

Answered examples (8):
In [3]: df
Out[3]:
                                   molecule  unit_info  experimental_value
0         CCCCCCC(=O)OC [methyl heptanoate]      kg/m3              805.69
1         CCCCCCC(=O)OCC [ethyl heptanoate]      kg/m3              796.55
2   CCCCCCCCCCCC(=O)OCC [ethyl dodecanoate]      kg/m3              799.37
3           CCCCCC(=O)OC [methyl hexanoate]      kg/m3              805.49
4           CCCCCC(=O)OCC [ethyl hexanoate]      kg/m3              794.69
5         CCCCCCCC(=O)OC [methyl octanoate]      kg/m3              805.56
6  CCCCCCCCCCCCCC(=O)OCC [ethyl tetradecanoate]      kg/m3              799.27
7         CCCCCCCC(=O)OCC [ethyl octanoate]      kg/m3              797.16

Kindly indicate its recorded mass density. Item: CCCCCCCCCC(=O)OC [methyl decanoate]
806.06

Please look at this molecule and report its mass density: CCCCCCCCCC(=O)OCC [ethyl decanoate]
798.5

----------
Each entry below lists one item and its recorded refractive index value.
assay: refractive index (Na D-line) (dimensionless); conditions: 308.15 K; 101.33 kPa; Liquid; Standard Abbe refractometry
± gives the expanded uncertainty stated by the source.

The following molecules have reported results that may help.
                                   molecule  parameter_measured  experimental_value
0         CCCCCCCC(=O)OC [methyl octanoate]    refractive index   1.41079 ± 0.00049
1   CCCCCCCCCCCC(=O)OCC [ethyl dodecanoate]    refractive index   1.42547 ± 0.00051
2         CCCCCCC(=O)OCC [ethyl heptanoate]    refractive index   1.40673 ± 0.00057
3         CCCCCCCC(=O)OCC [ethyl octanoate]    refractive index   1.41148 ± 0.00052
4       CCCCCCCCCC(=O)OCC [ethyl decanoate]    refractive index   1.41944 ± 0.00052
5   CCCCCCCCCCCC(=O)OC [methyl dodecanoate]    refractive index    1.42594 ± 0.0005
6           CCCCCC(=O)OC [methyl hexanoate]    refractive index    1.39841 ± 0.0005
7  CCCCCCCCCCCCCC(=O)OC [methyl tetradecanoate]    refractive index   1.43093 ± 0.00049

Input CCCCCC(=O)OCC [ethyl hexanoate] , output reported refractive index.
1.40063 ± 0.00053

Identify measured refractive index associated with CCCCCCCCCCCCCC(=O)OCC [ethyl tetradecanoate]
1.43026 ± 0.00049

# return recorded refractive index for entry CCCCCCCCCC(=O)OC [methyl decanoate]
1.41938 ± 0.00052

Supply recorded refractive index for CCCCCCC(=O)OC [methyl heptanoate] here.
1.4053 ± 0.00055

----------
Overview of reported refractive index across a group of compounds:
assay: refractive index (Na D-line) (dimensionless); settings: 348.15 K; 101.33 kPa; Liquid; Standard Abbe refractometry
When you answer, write just the number.

# example entries with known answers
>>> print(df.to_string())
                                   compound  experimental_value
0       CCCCCCCCCC(=O)OCC [ethyl decanoate]             1.40241
1         CCCCCCCC(=O)OCC [ethyl octanoate]             1.39386
2  CCCCCCCCCCCCCC(=O)OCC [ethyl tetradecanoate]             1.41406
3         CCCCCCC(=O)OCC [ethyl heptanoate]             1.38866
4           CCCCCC(=O)OCC [ethyl hexanoate]              1.3821

Provide refractive index value for the following compound: CCCCCCC(=O)OC [methyl heptanoate]
1.38724

----------
conditions: 333.15 K; 101.33 kPa; Liquid; Vibrating tube method
Below, each entry is listed alongside its reported mass density.
Numeric answer only, unit kg/m3 assumed.

Take a look at these entries with their results.
>>> df
                                   compound  parameter_measured  experimental_value
0         CCCCCCCC(=O)OC [methyl octanoate]        mass density               841.3
1         CCCCCCCC(=O)OCC [ethyl octanoate]        mass density                 832
2                   CCCCCCCCCCCC [dodecane]        mass density              719.38
3       CCCCCCCCCC(=O)OCC [ethyl decanoate]        mass density              830.71
4  CCCCCCCCCCCCCC(=O)OC [methyl tetradecanoate]        mass density              836.37

Write down mass density measured for item CCCCCCCCCCCC(=O)OC [methyl dodecanoate]
837.53

Item CCCCCCC(=O)OCC [ethyl heptanoate] : provide mass density
833.07

Let me know recorded mass density for CCCCCC(=O)OC [methyl hexanoate] , thanks.
845.68

----------
assay: refractive index (Na D-line) (dimensionless); settings: 283.15 K; 101.33 kPa; Liquid; Standard Abbe refractometry
± gives the expanded uncertainty stated by the source.
Catalogue of refractive index readings, one per entry.

Read the entry CCCCCCCCCCCC(=O)OC [methyl dodecanoate] and write its reported refractive index.
1.43629 ± 0.0005

Provide one value: measured refractive index of CCCCCCCC(=O)OCC [ethyl octanoate]
1.42242 ± 0.00052

Tell me its refractive index given CCCCCC(=O)OC [methyl hexanoate] as the entry.
1.40984 ± 0.0005

Fill in reported refractive index for this entry: CCCCCCC(=O)OC [methyl heptanoate]
1.41643 ± 0.00055

Quote refractive index reported for CCCCCC(=O)OCC [ethyl hexanoate] please.
1.4121 ± 0.00053

For CCCCCCCCCC(=O)OCC [ethyl decanoate] , write its refractive index.
1.43 ± 0.00052

----------
conditions: 443.15 K; 101.33 kPa; Liquid; Vibrating tube method
Each entry below carries its recorded mass density.
Give just the number in kg/m3; leave the unit off.

Record excerpt, results attached:
>>> df
                            compound  experimental_value
0  CCCCCCC(=O)OCC [ethyl heptanoate]              728.84
1                       CCCCCCCCCCCC              635.55
2  CCCCCCCC(=O)OC [methyl octanoate]              739.56

// next item, mass density requested
Input CCCCCCCC(=O)OCC [ethyl octanoate] , output reported mass density.
733.17

----------
// reported refractive index per item
test: refractive index (Na D-line) (dimensionless); settings: 278.15 K; 101.33 kPa; Liquid; Standard Abbe refractometry
Form rule: numeric answer, no unit written next to it.

// below: answered compounds
                                  compound  experimental_value
0  CCCCCCCCCCCC(=O)OCC [ethyl dodecanoate]             1.43791
1        CCCCCCCC(=O)OCC [ethyl octanoate]             1.42461
2          CCCCCC(=O)OCC [ethyl hexanoate]             1.41438

For the compound CCCCCC(=O)OC [methyl hexanoate] , give its reported refractive index.
1.41212

Given the compound CCCCCCCCCCCC(=O)OC [methyl dodecanoate] , write its reported refractive index.
1.43836

Hello, please tell me recorded refractive index for this one: CCCCCCC(=O)OC [methyl heptanoate]
1.41865

----------
assay: refractive index (Na D-line) (dimensionless); details: 348.15 K; 101.33 kPa; Liquid; Standard Abbe refractometry
# maps each entry to its refractive index
Give the value as a plain number.

These recorded examples may help you get a feel for the data.
                                   molecule  experimental_value
0  CCCCCCCCCCCCCC(=O)OC [methyl tetradecanoate]             1.41474
1       CCCCCCCCCC(=O)OC [methyl decanoate]             1.40237
2   CCCCCCCCCCCC(=O)OCC [ethyl dodecanoate]             1.40886
3         CCCCCCCC(=O)OC [methyl octanoate]              1.3932

Answer with the recorded refractive index of CCCCCC(=O)OC [methyl hexanoate] only.
1.37961

Identify measured refractive index associated with CCCCCCCCCCCC(=O)OC [methyl dodecanoate]
1.40922
